# Tgt: recombinant human Mcl-1 (residues 171-327) / Bim interaction (Homo sapiens (Human), UniProt Q07820)
# Sequence (Q07820 171-327): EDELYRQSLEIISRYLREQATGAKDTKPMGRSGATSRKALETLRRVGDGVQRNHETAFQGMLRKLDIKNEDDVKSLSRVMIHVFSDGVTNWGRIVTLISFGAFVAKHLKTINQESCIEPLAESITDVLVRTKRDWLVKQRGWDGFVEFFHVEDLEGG
# Assay Details: biochemical
# Assay type: binding
# Run Conditions: read-out: Mcl-1 HTRF IC50
Measure: log10 IC50 (log10 of the value in nM)
// stored as log10 of IC50 expressed in nM

In the examples that follow, each entry is paired with its recorded log10 IC50.
CC#C[C@]1(O)CCC[C@H](C)[C@@H](C)S(=O)(=O)NC(=O)c2ccc3c(c2)N(C[C@@H]2CC[C@H]21)C[C@@]1(CCCc2cc(Cl)ccc21)CO3 [Example 100268] :: 0.54
CO[C@@]1(CC(=O)C(C)C)/C=C/C[C@H](C)[C@@H](C)S(=O)(=O)NC(=O)c2ccc3c(c2)N(C[C@@H]2CC[C@H]21)C[C@@]1(CCCc2cc(Cl)ccc21)CO3 :: -0.50
C[C@@H]1[C@@H](C)C/C=C/[C@@](O)(CC#N)[C@@H]2CC[C@H]2CN2C[C@@]3(CCCc4cc(Cl)ccc43)COc3ccc(cc32)C(=O)NS1(=O)=O [Example 100051] :: -0.66
C[C@@H]1[C@@H](C)CCC[C@@](O)(c2cccnc2)[C@@H]2CC[C@H]2CN2C[C@@]3(CCCc4cc(Cl)ccc43)COc3ccc(cc32)C(=O)NS1(=O)=O :: 0.95

Here's the next entry for you.
Lab book: log10 IC50 of C[C@@H]1[C@@H](C)CCC[C@@](O)(CS(=O)(=O)N(C)C)[C@@H]2CC[C@H]2CN2C[C@@]3(CCCc4cc(Cl)ccc43)COc3ccc(cc32)C(=O)NS1(=O)=O [Example 100099] noted as -0.18

---

Some compounds, each annotated with its measured IC50.
# Tgt: recombinant human Mcl-1 (residues 171-327) / Bim interaction (Homo sapiens (Human), UniProt Q07820)
# Assay Details: biochemical
# Format: binding
# Run Conditions: TR-FRET, Mcl-1(171-327) / biotin-Bim (51-76); read-out: Mcl-1 HTRF IC50
The answer is to be given in nM; state only the numeric part.

CCCO[C@]1(C=O)/C=C/C[C@H](C)[C@@H](C)S(=O)(=O)NC(=O)c2ccc3c(c2)N(C[C@@H]2CC[C@H]21)C[C@@]1(CCCc2cc(Cl)ccc21)CO3 [Example 100602] :: 0.8

Lab book: IC50 of CO[C@@H](C(=O)N(C)C)[C@]1(O)/C=C/C[C@H](C)[C@@H](C)S(=O)(=O)NC(=O)c2ccc3c(c2)N(C[C@@H]2CC[C@H]21)C[C@@]1(CCCc2cc(Cl)ccc21)CO3 [Example 100285] noted as 0.241

Lab book: IC50 of COCC[C@@H]1[C@@H](C)C/C=C/[C@](OC)(C2SCCCS2)[C@@H]2CC[C@H]2CN2C[C@@]3(CCCc4cc(Cl)ccc43)COc3ccc(cc32)C(=O)NS1(=O)=O [Example 100515] noted as 0.132

Lab book: IC50 of CO[C@@]1(CCN2CCOCC2)/C=C/C[C@H](C)[C@@H](C)S(=O)(=O)NC(=O)c2ccc3c(c2)N(C[C@@H]2CC[C@H]21)C[C@@]1(CCCc2cc(Cl)ccc21)CO3 [Example 100419] noted as 0.277

Lab book: IC50 of CO[C@]1(CC2=NC(C)(C)CO2)/C=C/C[C@H](C)[C@@H](C)S(=O)(=O)NC(=O)c2ccc3c(c2)N(C[C@@H]2CC[C@H]21)C[C@@]1(CCCc2cc(Cl)ccc21)CO3 [Example 100380] noted as 0.208

Lab book: IC50 of CO[C@]1(C)CCC[C@H](C)[C@@H](C)S(=O)(=O)NC(=O)c2ccc3c(c2)N(C[C@@H]2CC[C@H]21)C[C@@]1(CCCc2cc(Cl)ccc21)CO3 (single isomer, unassigned) [Example 100211] noted as 1.44

Lab book: IC50 of CO[C@@]1(CC(=O)N2CCN3CCOC[C@H]3C2)/C=C/C[C@H](C)[C@@H](C)S(=O)(=O)NC(=O)c2ccc3c(c2)N(C[C@@H]2CC[C@H]21)C[C@@]1(CCCc2cc(Cl)ccc21)CO3 [Example 100411] noted as 0.584

Lab book: IC50 of CO[C@@]1(C[C@@H](C)O)/C=C/C[C@H](C)[C@@H](C)S(=O)(=O)NC(=O)c2ccc3c(c2)N(C[C@@H]2CC[C@H]21)C[C@@]1(CCCc2cc(Cl)ccc21)CO3 [Example 100435] noted as 0.055

Lab book: IC50 of CO[C@@]1(Cc2cc(C)on2)/C=C/C[C@H](C)[C@@H](C)S(=O)(=O)NC(=O)c2ccc3c(c2)N(C[C@@H]2CC[C@H]21)C[C@@]1(CCCc2cc(Cl)ccc21)CO3 [Example 100552] noted as 0.065

---

# Tgt: recombinant human Mcl-1 (residues 171-327) / Bim interaction (Homo sapiens (Human), UniProt Q07820)
# Assay Details: biochemical
# Type: binding
# Run Conditions: 0.1 nM Mcl-1(171-327), 0.05 nM biotin-Bim (51-76); read-out: Mcl-1 HTRF IC50
Measure: pIC50
Convention used: pIC50 is expressed as -log10 of the molar concentration.

In the examples that follow, each entry is paired with its recorded pIC50.
CO[C@]1(CN2CCN3CCCC[C@@H]3C2)/C=C/C[C@H](C)[C@@H](CCN2CCOCC2)S(=O)(=O)NC(=O)c2ccc3c(c2)N(C[C@@H]2CC[C@H]21)C[C@@]1(CCCc2cc(Cl)ccc21)CO3 :: 9.98
CO[C@@]1(CN2CCN3CCN(C(=O)CCS(=O)(=O)c4ccccc4)C[C@@H]3C2)/C=C/C[C@H](C)[C@@H](C)S(=O)(=O)NC(=O)c2ccc3c(c2)N(C[C@@H]2CC[C@H]21)C[C@@]1(CCCc2cc(Cl)ccc21)CO3 (single isomer, unassigned) [Example 294] :: 9.18
CO[C@]1(CN2CC(C)(C#N)C2)/C=C/C[C@H](C)[C@@H](C)S(=O)(=O)NC(=O)c2ccc3c(c2)N(C[C@@H]2CC[C@H]21)C[C@@]1(CCCc2cc(Cl)ccc21)CO3 :: 9.43

Lab book: pIC50 of CO[C@]1(CN2CC[C@H]3CCCC[C@@H]3C2)/C=C/C[C@H](C)[C@@H](C)S(=O)(=O)NC(=O)c2ccc3c(c2)N(C[C@@H]2CC[C@H]21)C[C@@]1(CCCc2cc(Cl)ccc21)CO3 (single isomer, unassigned) [Example 89] noted as 8.43

---

# Tgt: recombinant human Mcl-1 (residues 171-327) / Bim interaction (Homo sapiens (Human), UniProt Q07820)
# Assay Details: biochemical
# Format: binding
# Run Conditions: 0.1 nM Mcl-1(171-327), 0.05 nM biotin-Bim (51-76); read-out: Mcl-1 HTRF IC50
Measure: pIC50
Convention used: pIC50 is expressed as -log10 of the molar concentration.

In the examples that follow, each entry is paired with its recorded pIC50.
CO[C@@]1(CN2CCN(CC(F)F)CC2)/C=C/C[C@H](C)[C@@H](C)S(=O)(=O)NC(=O)c2ccc3c(c2)N(C[C@@H]2CC[C@H]21)C[C@@]1(CCCc2cc(Cl)ccc21)CO3 :: 9.55
COCC[C@@H]1[C@@H](C)C/C=C/[C@](CN2CCN3CCCC[C@@H]3C2)(OC)[C@@H]2CC[C@H]2CN2C[C@@]3(CCCc4cc(Cl)ccc43)COc3ccc(cc32)C(=O)NS1(=O)=O :: 9.77

Lab book: pIC50 of CC(C)O[C@]1(CN2CCN3CCOC[C@@H]3C2)/C=C/C[C@H](C)[C@@H](C)S(=O)(=O)NC(=O)c2ccc3c(c2)N(C[C@@H]2CC[C@H]21)C[C@@]1(CCCc2cc(Cl)ccc21)CO3 noted as 9.88

---

Some compounds, each annotated with its measured IC50.
# Tgt: recombinant human Mcl-1 (residues 171-327) / Bim interaction (Homo sapiens (Human))
# Assay Details: biochemical
# Assay type: binding
# Run Conditions: 0.1 nM Mcl-1(171-327), 0.05 nM biotin-Bim (51-76); read-out: Mcl-1 HTRF IC50
The answer is to be given in nM; state only the numeric part.

CO[C@]1(CN2CCN3CCCC[C@@H]3C2)/C=C/C[C@H](C)[C@@H](C[C@H](C)O)S(=O)(=O)NC(=O)c2ccc3c(c2)N(C[C@@H]2CC[C@H]21)C[C@@]1(CCCc2cc(Cl)ccc21)CO3 (single isomer, unassigned) [Example 362] :: 0.061
CO[C@]1(CN2CCN3C(=O)OC[C@@H]3C2)/C=C/C[C@H](C)[C@@H](C)S(=O)(=O)NC(=O)c2ccc3c(c2)N(C[C@@H]2CC[C@H]21)C[C@@]1(CCCc2cc(Cl)ccc21)CO3 :: 0.126
CO[C@@]1(CN2CCN(C3CCC3)CC2)/C=C/C[C@H](C)[C@@H](C)S(=O)(=O)NC(=O)c2ccc3c(c2)N(C[C@@H]2CC[C@H]21)C[C@@]1(CCCc2cc(Cl)ccc21)CO3 :: 0.181

Here's the next entry for you.
IC50 value, target or system recombinant human Mcl-1 (residues 171-327) / Bim interaction (Homo sapiens (Human)), for COCCO[C@]1(CN2CCN3CCCC[C@@H]3C2)/C=C/C[C@H](C)[C@@H](C)S(=O)(=O)NC(=O)c2ccc3c(c2)N(C[C@@H]2CC[C@H]21)C[C@@]1(CCCc2cc(Cl)ccc21)CO3 : 0.092

Value source: patent US10821115B2
